System: Enterococcus faecalis
Assay: Antibacterial activity against Enterococcus faecalis DSM-20478 assessed as bacterial growth inhibition
Format: functional

Chem smiles: CCCCNc1nc(SCCCC)nc2c1cnn2CCCC
MIC: > 128 µg/mL
//
Chem smiles: CCCCNc1nc(SCCCC)nc2cc(-c3cccnc3)ccc12
MIC: > 128 µg/mL
//
Chem smiles: CCCCNc1nc(SCCCC)nc2cc(Cl)ccc12
MIC: > 128 µg/mL
//
Chem smiles: CCCCNc1nc(SCCCC)nc2ccc(-c3cccnc3)cc12
MIC: > 128 µg/mL
//
Chem smiles: CCCCSc1nc(SCCCC)c2cc(NS(=O)(=O)CC)ccc2n1
MIC: 8 µg/mL
